Molecular target: Progesterone receptor (Homo sapiens, UniProt P06401); also: assay procedure not described here
Sequence (P06401 whole entry): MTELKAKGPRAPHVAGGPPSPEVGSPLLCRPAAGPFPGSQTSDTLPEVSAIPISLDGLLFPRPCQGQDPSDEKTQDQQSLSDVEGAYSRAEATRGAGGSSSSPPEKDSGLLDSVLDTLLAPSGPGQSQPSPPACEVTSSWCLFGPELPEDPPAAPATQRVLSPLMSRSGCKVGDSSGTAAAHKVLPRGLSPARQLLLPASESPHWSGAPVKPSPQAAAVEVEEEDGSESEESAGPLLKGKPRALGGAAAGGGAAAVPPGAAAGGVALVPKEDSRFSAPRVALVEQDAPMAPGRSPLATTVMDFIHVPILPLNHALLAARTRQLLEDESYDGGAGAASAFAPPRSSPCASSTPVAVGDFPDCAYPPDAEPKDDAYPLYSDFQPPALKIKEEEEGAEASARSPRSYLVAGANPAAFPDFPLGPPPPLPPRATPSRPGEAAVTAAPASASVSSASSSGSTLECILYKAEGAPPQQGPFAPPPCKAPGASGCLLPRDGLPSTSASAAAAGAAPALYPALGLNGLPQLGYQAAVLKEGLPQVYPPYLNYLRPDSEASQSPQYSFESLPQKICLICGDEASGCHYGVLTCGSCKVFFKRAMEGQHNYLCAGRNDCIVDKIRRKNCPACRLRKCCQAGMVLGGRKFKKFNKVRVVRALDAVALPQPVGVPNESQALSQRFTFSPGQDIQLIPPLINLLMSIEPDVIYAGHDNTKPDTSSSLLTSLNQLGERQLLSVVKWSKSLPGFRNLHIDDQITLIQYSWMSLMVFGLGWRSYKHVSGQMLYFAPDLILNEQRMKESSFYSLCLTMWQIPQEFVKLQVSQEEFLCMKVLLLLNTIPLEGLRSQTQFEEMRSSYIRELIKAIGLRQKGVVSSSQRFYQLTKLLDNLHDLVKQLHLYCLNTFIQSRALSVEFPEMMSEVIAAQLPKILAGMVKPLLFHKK
Type: functional
parameter: AC50

molecule="CCC(COC(=O)c1cc(OC)c(OC)c(OC)c1)(c1ccccc1)N(C)C (stereo not drawn) [TRIMEBUTINE]" result="> 30 µM"
molecule="CCC1(c2ccccc2)CCC(=O)NC1=O (stereo not drawn) [GLUTETHIMIDE]" result="> 10 µM"
molecule="C[C@]12CCC(=O)C(O)=C1CC[C@@H]1[C@@H]2CC[C@]2(C)C(=O)CC[C@@H]12 [FORMESTANE]" result="3.7 µM"
molecule="COCC1=C(C(=O)O)N2C(=O)[C@@H](NC(=O)/C(=N\\OC)c3csc(N)n3)[C@H]2SC1 [CEFPODOXIME]" result="> 30 µM"
molecule="COc1cc2nccc(Oc3ccc(NC(=O)C4(C(=O)Nc5ccc(F)cc5)CC4)cc3)c2cc1OC [CABOZANTINIB]" result="> 30 µM"
molecule="C#C[C@]1(OC(C)=O)CC[C@H]2[C@@H]3CCC4=C/C(=N/O)CC[C@@H]4[C@H]3CC[C@@]21CC [NORGESTIMATE]" result="0.02 µM"
molecule="COc1ccc(-c2noc(CC(=O)O)c2-c2ccc(OC)cc2)cc1 [MOFEZOLAC]" result="> 30 µM"
molecule="O=C1CCc2cc(OCCCCc3nnnn3C3CCCCC3)ccc2N1 [CILOSTAZOL]" result="> 30 µM"

----------
Molecular target: Gamma-aminobutyric acid receptor subunit alpha-1 (Rattus norvegicus); also: assay procedure not described here
Sequence (P62813 whole entry): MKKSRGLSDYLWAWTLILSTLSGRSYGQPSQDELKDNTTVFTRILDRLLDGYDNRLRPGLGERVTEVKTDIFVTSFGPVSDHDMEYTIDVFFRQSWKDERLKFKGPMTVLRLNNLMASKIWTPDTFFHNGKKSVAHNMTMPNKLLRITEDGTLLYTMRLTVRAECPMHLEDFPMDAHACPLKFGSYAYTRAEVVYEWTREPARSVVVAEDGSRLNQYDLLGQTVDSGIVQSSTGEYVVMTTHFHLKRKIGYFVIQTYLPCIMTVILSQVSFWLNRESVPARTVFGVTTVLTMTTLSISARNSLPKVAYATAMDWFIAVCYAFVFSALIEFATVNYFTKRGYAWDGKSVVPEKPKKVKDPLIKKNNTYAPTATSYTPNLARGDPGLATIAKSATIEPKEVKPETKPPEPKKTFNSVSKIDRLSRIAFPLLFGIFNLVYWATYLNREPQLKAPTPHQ
Type: functional
Recorded AC50 by entry
parameter: AC50

compound="C[C@]12CC[C@@H]3c4ccc(O)cc4C[C@@H](CCCCCCCCC[S+]([O-])CCCC(F)(F)C(F)(F)F)[C@H]3[C@@H]1CC[C@@H]2O (stereo partly drawn)" result="> 30 µM"
compound=CCN(CC)CCN1C(=O)CN=C(c2ccccc2F)c2cc(Cl)ccc21 result="0.0512 µM"
compound=CN(C)CCCNc1c2ccccc2nc2cccc([N+](=O)[O-])c12 result="18 µM"
compound=O=C(O)c1ccccc1Nc1cc(Cl)ccc1C(=O)O result="> 30 µM"
compound=C[C@H](Cc1ccc(O)c(O)c1)[C@@H](C)Cc1ccc(O)c(O)c1 result="> 10 µM"
compound=C[C@@H](Oc1cc(-c2cnn(C3CCNCC3)c2)cnc1N)c1c(Cl)ccc(F)c1Cl result="> 30 µM"
compound="CC(=O)O[C@]1(C(C)=O)CC[C@H]2[C@@H]3C=C(C)C4=CC(=O)CC[C@@H]4[C@H]3CC[C@@]21C [NOMEGESTROL ACETATE]" result="2.5 µM"
compound="NC1CCN(c2nc3c(cc2F)c(=O)c(C(=O)O)cn3-c2ccc(F)cc2F)C1 (stereo not drawn)" result="> 30 µM"

----------
Recorded AC50 by entry
Target: Muscarinic acetylcholine receptor M2 (Homo sapiens); also: assay procedure not described here
Sequence (P08172 whole entry): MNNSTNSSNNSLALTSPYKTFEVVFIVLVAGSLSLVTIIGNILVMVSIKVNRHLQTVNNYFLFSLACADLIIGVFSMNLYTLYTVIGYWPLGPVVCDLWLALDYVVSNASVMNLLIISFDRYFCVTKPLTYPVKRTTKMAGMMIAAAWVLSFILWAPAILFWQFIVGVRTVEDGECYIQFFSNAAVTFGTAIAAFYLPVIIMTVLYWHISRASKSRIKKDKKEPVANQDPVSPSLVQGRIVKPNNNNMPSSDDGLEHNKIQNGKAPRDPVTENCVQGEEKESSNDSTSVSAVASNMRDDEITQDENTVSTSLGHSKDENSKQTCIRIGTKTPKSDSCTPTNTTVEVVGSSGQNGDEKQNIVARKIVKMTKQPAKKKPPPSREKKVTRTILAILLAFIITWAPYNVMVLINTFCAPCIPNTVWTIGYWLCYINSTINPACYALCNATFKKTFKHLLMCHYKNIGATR
Format: functional, cell-based
parameter: AC50

compound="CCC1(c2ccccc2)CCC(=O)NC1=O (stereo not given) [GLUTETHIMIDE]" result="> 10 µM"
compound="CC(C)[C@H](N)C(=O)OCC(CO)OCn1cnc2c(=O)nc(N)[nH]c21 (stereo not given in full) [VALGANCICLOVIR]" result="> 30 µM"
compound="C#CCOc1ccc(N)cc1C(=O)NCCCC [PARSALMIDE]" result="> 30 µM"
compound="COc1cc2c(cc1OC)C(CCc1ccc(Cl)cc1)N(C)CC2 (stereo not given) [METHOPHOLINE]" result="> 10 µM"
compound="CCOC(=O)C1=C(C)NC(C)=C(C(=O)OC)C1c1cccc([N+](=O)[O-])c1 (stereo not given) [NITRENDIPINE]" result="> 10 µM"
compound="CC1(C)S[C@@H]2[C@H](NC(=O)[C@H](N)c3ccccc3)C(=O)N2[C@H]1C(=O)OCOC(=O)[C@@H]1N2C(=O)C[C@H]2S(=O)(=O)C1(C)C [SULTAMICILLIN]" result="> 30 µM"
compound="CC(=O)O[C@H](CC(=O)[O-])C[N+](C)(C)C [ACETYLCARNITINE]" result="> 30 µM"
compound="C=CCNc1nc(NCC=C)nc(N2CCN(C(c3ccc(F)cc3)c3ccc(F)cc3)CC2)n1 [ALMITRINE]" result="> 30 µM"
compound=NC(=O)CN1CCCC1=O result="> 30 µM"
compound="O=C1CN=C(c2ccccn2)c2cc(Br)ccc2N1 [BROMAZEPAM]" result="> 10 µM"
compound="C[C@]12CC[C@@H]3c4ccc(O)cc4C[C@@H](CCCCCCCCC[S+]([O-])CCCC(F)(F)C(F)(F)F)[C@H]3[C@@H]1CC[C@@H]2O (stereo not given in full) [FULVESTRANT]" result="> 30 µM"
compound="C=CC[C@@H]1/C=C(\\C)C[C@H](C)C[C@H](OC)[C@H]2O[C@@](O)(C(=O)C(=O)N3CCCC[C@H]3C(=O)O[C@H](/C(C)=C/[C@@H]3CC[C@@H](O)[C@H](OC)C3)[C@H](C)[C@@H](O)CC1=O)[C@H](C)C[C@@H]2OC [TACROLIMUS ANHYDROUS]" result="> 10 µM"
compound=CC(=O)SC[C@@H](C)C(=O)N1CCC[C@H]1C(=O)N[C@@H](Cc1ccccc1)C(=O)O result="> 30 µM"
compound="CCN1CCN(Cc2ccc(Nc3ncc(F)c(-c4cc(F)c5nc(C)n(C(C)C)c5c4)n3)nc2)CC1 [ABEMACICLIB]" result="> 30 µM"
compound="C[C@]12C=CC(=O)N[C@@H]1CC[C@@H]1[C@@H]2CC[C@]2(C)[C@@H](C(=O)Nc3cc(C(F)(F)F)ccc3C(F)(F)F)CC[C@@H]12 [DUTASTERIDE]" result="> 10 µM"
